System: SK-MEL-2 melanoma
experiment-description: NCI tumour cell line growth inhibition, 48 h
quantity-measured: GI50

Lab note: each molecule below needs its GI50 filled in.
1. Nc1nc2c(c3ncccc13)C(c1cccc(Br)c1)Cc1ncccc1-2 (stereo not given)
2. CCCS(=O)(=O)Nc1ccc(F)c(C(=O)c2c[nH]c3ncc(Cl)cc23)c1F
3. O=C(N/N=C/c1ccccc1O)c1ccccc1O
4. CCc1ccc(CNCC(O)c2ccccc2)cc1 (stereo not given)
5. CC(=O)O[C@H]1CCC2(C)C(=CCC3C2CCC2(C)/C(=N/OC(=O)c4ccc(N(CCCl)CCCl)cc4)CCC32)C1 (stereo not given in full)
6. CCOC(=O)N1C/C(=C/c2ccc(F)cc2)C(=O)/C(=C/c2ccc(F)cc2)C1

## Result
1: 0.871 µM; 2: 4.37 µM; 3: 1.03 µM; 4: 17.2 µM; 5: 32.4 µM; 6: 2.88 µM

Lab note: each molecule below needs its GI50 filled in.
1. [Cl-].[Cl-].[Cl-].[O-]c1cccc2cccnc12.[O-]c1cccc2cccnc12.[O]=[Mo]
2. C[C@@H]1C[N+]2([O-])[C@H]3C4=CCC[C@@H]4CC[C@H]3[C@@]3(C)OC(=O)CC[C@]34CC[C@H]1[C@@H]42 (stereo not given in full)
3. COc1cc(NCCCCCN=C(N)N)c2ncccc2c1
4. CN1CCN(CCCOc2ccc3nc(Nc4cc(Cl)cc(Cl)c4)ccc3c2)CC1

## Result
1. 3.37 µM
2. > 60 µM
3. 3.31 µM
4. 2.03 µM

----------
Please respond with reported TGI for every item in the list.
System: OVCAR-8 ovarian
experiment-description: NCI tumour cell line growth inhibition, 48 h

Lab note: each molecule below needs its TGI filled in.
1. C1CSCCCSCCCSCCCSCCCSC1
2. CCOC(=O)[C@H]1O[C@@H]1C(=O)N[C@@H](CC(C)C)C(=O)NCCc1ccc(O)cc1
3. O=S(=O)(Nc1ccccc1)c1ccc(-c2c3nc(c(-c4ccc(S(=O)(=O)Nc5ccccc5)cc4)c4ccc([nH]4)c(-c4ccc(S(=O)(=O)Nc5ccccc5)cc4)c4nc(c(-c5ccc(S(=O)(=O)Nc6ccccc6)cc5)c5ccc2[nH]5)C=C4)C=C3)cc1
4. C=C1C(O)C23CCC4C(C(=O)O)(C(=O)O)CC(OC5OC(CO)C(O)C(OC(=O)CCc6ccccc6)C5NC(=O)CC(C)C)CC4(C)C2CCC1(O)C3 (stereo not drawn)
5. CCOC(=O)Nn1c(C)nnc1CC#N

## Result
> 100 µM
> 100 µM
> 31.6 µM
> 100 µM
> 100 µM

----------
Please respond with reported TGI for every item in the list.
Tested on: LXFL 529 NSCLC
experiment-description: NCI tumour cell line growth inhibition, 48 h

Reference set (2 entries):
| compound | TGI |
| --- | --- |
| CCOC(=O)C(=O)Nc1ccc(C)c(C)c1 | > 100 µM |
| Nc1ccc2c(c1)C(=O)N(OS(=O)(=O)c1ccccc1)C2=O | > 100 µM |

Lab note: each compound below needs its TGI filled in.
1. O=C1C2C(C(=O)N1c1ccccc1)C1(Br)c3ccccc3C2(Br)C2C(=O)N(c3ccccc3)C(=O)C21 (stereo not given)
2. NCCN.NCCN.[Cl-].[O]=[Os+2]=[O]
3. O=C1NC2C(=O)N(Cc3ccccc3)C(=O)C2N1 (stereo not given)

## Result
1: > 31.6 µM; 2: > 100 µM; 3: > 100 µM
